assay-procedure: Particle size distribution by laser diffraction (Sympatec) after processing
Format: physicochemical
measurement-conditions: micronized sucrose, initial; listed as Sucrose 1
property: Particle Size Distribution Initial Span
Lab note: record just the number, no unit beside it.

Request the reported Particle Size Distribution Initial Span associated with OC[C@H]1O[C@@](CO)(O[C@H]2O[C@H](CO)[C@@H](O)[C@H](O)[C@H]2O)[C@@H](O)[C@@H]1O
2.4

* * *

assay-procedure: Particle size distribution by laser diffraction (Sympatec) after processing
Assay type: physicochemical
measurement-conditions: laser diffraction, Tables 4 and 5
property: Physical stability after micronization judged from size distribution

CCCC1O[C@@H]2C[C@H]3[C@@H]4CCC5=CC(=O)C=C[C@]5(C)[C@H]4[C@@H](O)C[C@]3(C)[C@]2(C(=O)CO)O1 (stereo partly shown) [Micronized Budesonide, Batch 2 (annealed)] | good physical stability
CCC(=O)O[C@]1(C(=O)SCF)[C@H](C)C[C@H]2[C@@H]3C[C@H](F)C4=CC(=O)C=C[C@]4(C)[C@@]3(F)[C@@H](O)C[C@@]21C [Micronized Fluticasone propionate, Batch 2 (annealed)] | good physical stability

* * *

assay-procedure: Particle size distribution by laser diffraction (Sympatec) after processing
Assay type: physicochemical
measurement-conditions: micronized sucrose, initial; listed as Sucrose 2
property: Particle Size Distribution Initial Span
Lab note: record just the number, no unit beside it.

Request the reported Particle Size Distribution Initial Span associated with OC[C@H]1O[C@@](CO)(O[C@H]2O[C@H](CO)[C@@H](O)[C@H](O)[C@H]2O)[C@@H](O)[C@@H]1O
1.9

* * *

Here the recorded % Amorphous Content Initial is given for each entry.
assay-procedure: Amorphous content by (dynamic) vapor sorption
Type: physicochemical
measurement-conditions: micronized GP batches, initial
Answer format: numeric, % implied, no suffix.

The examples below pair each entry with its known result.
C[N+]1(C)CCC(OC(=O)C(O)(c2ccccc2)C2CCCC2)C1 (stereo not shown) [Batch 2B, Glycopyrrolate] | 5.3
C[N+]1(C)CCC(OC(=O)C(O)(c2ccccc2)C2CCCC2)C1 (stereo not shown) [Batch 2G, Glycopyrrolate] | 2.3
C[N+]1(C)CCC(OC(=O)C(O)(c2ccccc2)C2CCCC2)C1 (stereo not shown) [Batch 2F, Glycopyrrolate] | 0.9

Request the reported % Amorphous Content Initial associated with C[N+]1(C)CCC(OC(=O)C(O)(c2ccccc2)C2CCCC2)C1 (stereo not shown) [Batch 2C, Glycopyrrolate]
0.9

Request the reported % Amorphous Content Initial associated with C[N+]1(C)CCC(OC(=O)C(O)(c2ccccc2)C2CCCC2)C1 (stereo not shown) [Batch 2E, Glycopyrrolate]
2.6

Request the reported % Amorphous Content Initial associated with C[N+]1(C)CCC(OC(=O)C(O)(c2ccccc2)C2CCCC2)C1 (stereo not shown) [Batch 2D, Glycopyrrolate]
0.9

Request the reported % Amorphous Content Initial associated with C[N+]1(C)CCC(OC(=O)C(O)(c2ccccc2)C2CCCC2)C1 (stereo not shown) [Batch 1A, Glycopyrrolate]
17.9
